Source listed as PubChem BioAssay (NCI).

- Test system: ACHN renal
- assay_comment: NCI tumour cell line growth inhibition, 48 h
measured_metric: TGI (µM)
Report only the number, with the unit µM understood.

Form: compound = "Cc1c2ccccc2c(C)n2c1nc1ccccc12" ; TGI = 45.5

Form: compound = NC(CC(O)(c1ccccc1)c1ccccc1)c1ccccc1S (stereo not given) ; TGI = 27.3

Form: compound = "Cc1ncc(C(=O)Nc2ccc(CN3CCN(C)CC3)c(C(F)(F)F)c2)cc1C#Cc1c(N)ncc2ccccc12" ; TGI = 0.732

Form: compound = Clc1ccc(C2CC(c3cccc(Nc4ccncc4)c3)=NN2c2cc(Cl)cc(Cl)c2)cc1 (stereo not given) ; TGI = 2.98

====

- Tested on: NCI-H23 lung
- assay_comment: NCI tumour cell line growth inhibition, 48 h; in the data active = GI50 below about 0.43 µM; inactive = the rest
Choose one outcome from this list and give only that: active, inactive

Dear colleague, could you share the recorded outcome for "CC(C)C[C@H](NC(=O)[C@@H](NC(=O)c1cccc(-c2ccccc2)n1)[C@@H](C)O)B(O)O" when you have a moment? active

Dear colleague, could you share the recorded outcome for COC(=O)[C@H](C)NC(=O)[C@@H](OC)[C@@H]1Cc2cc3cc(OC4CC(OC5CC(O)C(O)C(C)O5)C(O)C(C)O4)c(C)c(O)c3c(O)c2C(=O)[C@H]1OC1CC(OC2CC(OC3CC(C)(O)C(O)C(C)O3)C(O)C(C)O2)C(O)C(C)O1 (some centres undefined) when you have a moment? active

Dear colleague, could you share the recorded outcome for "CC(C)C(=O)[O-].CC(C)C(=O)[O-].N.N.N.N.[Co+3].[O-][Cl+3]([O-])([O-])[O-]" when you have a moment? inactive

Dear colleague, could you share the recorded outcome for Nc1nccc2c1ncn2C1OC(CO)C(O)C1O (centres undefined) when you have a moment? inactive

Dear colleague, could you share the recorded outcome for "CNC1=C(C(=O)OC)SC(c2ccccc2)(c2ccccc2)SC1" when you have a moment? inactive

Dear colleague, could you share the recorded outcome for "FC(F)(F)c1cccc2c(SCCc3n[nH]c(=S)o3)ccnc12" when you have a moment? inactive

Dear colleague, could you share the recorded outcome for "CC1=CCC[C@H]2[C@](C)(CC3=CC(=O)C(Sc4ccccc4)=CC3=O)[C@@H](C)CC[C@]12C" when you have a moment? inactive

Dear colleague, could you share the recorded outcome for "COc1cc(NC(=O)NCc2ccco2)ccc1-c1ccc(NC(=O)NCc2ccco2)cc1OC" when you have a moment? inactive

Dear colleague, could you share the recorded outcome for "O=C(COc1cccc(/C=C2\Oc3ccc4ccccc4c3C2=O)c1)c1ccc(Cl)cc1" when you have a moment? inactive

Dear colleague, could you share the recorded outcome for "CN(C)CCCCn1ccc2c1C(=O)c1c(c(O)c3ccccc3c1O)C2=O" when you have a moment? inactive

Dear colleague, could you share the recorded outcome for "Cc1ccc2nc(-c3ccc(N)c4ccccc34)[nH]c2c1" when you have a moment? active

Dear colleague, could you share the recorded outcome for "COc1c(Cl)ccc2c(-c3nc4cc(Cl)c(F)cc4s3)cc(=O)oc12" when you have a moment? inactive

Dear colleague, could you share the recorded outcome for COc1cccc(C2SC(C)C(=O)N2CCc2cccs2)c1 (centres undefined) when you have a moment? inactive

Dear colleague, could you share the recorded outcome for CSc1ccc(SC2c3ccc(C)cc3Oc3nc(N)c(C#N)c(N)c32)cc1 (centres undefined) when you have a moment? inactive

====

Exercise: for every item that follows, state its recorded TGI.
- Tested on: HOP-62 NSCLC
- assay_comment: NCI tumour cell line growth inhibition, 48 h

Form: compound = "O=C(CNc1ccc2c(=S)c3ccccc3[nH]c2c1)Nc1ccccc1-c1ccccc1NC(=O)CNc1ccc2c(=S)c3ccccc3[nH]c2c1" ; TGI = 48.4 µM

Form: compound = "COc1ccc2c(CCNC(=O)/C=C/c3ccccc3)c(C(C)=O)[nH]c2c1[N+](=O)[O-]" ; TGI = 76.2 µM

Form: compound = "Cc1ccc(C2=C(c3ccc(C)cc3)C(c3ccc(C)cc3)=C(c3ccc(C)cc3)C2=O)cc1" ; TGI = > 100 µM

Form: compound = "Cn1c(=O)c(C(=O)NC(=O)NCCCCCOC(=O)CCCCCCCCCCC(=O)OCCCCCNC(=O)NC(=O)c2cn(Cc3ccccc3)c(=O)n(C)c2=O)cn(Cc2ccccc2)c1=O" ; TGI = > 100 µM

Form: compound = "CC(C)C(=O)[O-].CC(C)C(=O)[O-].N.N.N.N.[Co+3].[O-][Cl+3]([O-])([O-])[O-]" ; TGI = > 100 µM

Form: compound = "O=[N+]([O-])c1cccc(Cl)c1Oc1ccc(S(=O)(=O)/N=C(\NO)Nc2ccc(Cl)cc2)cc1" ; TGI = 45.4 µM

Form: compound = CCCCCN(CCCCC)CC(C)(C)C(O)c1ccc(OC)c2ccccc12 (centres undefined) ; TGI = > 100 µM

Form: compound = "NC(=O)c1ccccc1NC(=O)c1ccccc1Cl" ; TGI = > 100 µM

Form: compound = OCC(O)C(O)C(O)c1nn(-c2ccccc2)c2nc3cc(Cl)c(Cl)cc3nc12 (centres undefined) ; TGI = > 100 µM

Form: compound = "O=C(O)c1ccccc1N=Nc1ccc2oc(=O)c(C(=O)Nc3ccccc3)cc2c1" ; TGI = 97.7 µM

Form: compound = "COc1cccc(CCC(=O)c2cc3c(N)c(C(=O)Nc4cccc(Cl)c4C)sc3nc2C)c1" ; TGI = > 100 µM

Form: compound = "O=C1CS[C@@](CC(c2ccc(Cl)cc2)c2ccc(Cl)cc2)(c2ccc(Cl)cc2)N1" ; TGI = 82 µM

Form: compound = "CC(=O)NC1(C(=O)N[C@@H](Cc2ccccc2)C(=O)NC2CCCCC2)Cc2ccc3ccccc3c2-c2c(ccc3ccccc23)C1" ; TGI = > 100 µM

Form: compound = "Nc1c(C(=O)N/N=C/c2ccc(-c3cc(Cl)c(Cl)cc3Cl)o2)cnn1-c1ccnc2c(C(F)(F)F)cccc12" ; TGI = > 100 µM

Form: compound = "N#C/C(=C\c1c(-c2ccccc2)[nH]c2ccccc12)C(=O)c1ccccc1" ; TGI = > 100 µM

Form: compound = "CCn1c(=O)c2ccccc2n2c(=O)c3cc4ccccc4cc3nc12" ; TGI = > 100 µM

Form: compound = "CC12ON(P(=O)(c3ccccc3)c3ccccc3)C(C)(c3ccccc31)c1ccccc12" ; TGI = > 100 µM

Form: compound = CCOC(=O)C(NC(=O)CC)(Nc1ccc(F)c(Cl)c1)C(F)(F)F (centres undefined) ; TGI = > 100 µM

Form: compound = CSc1ccc(SC2c3ccc(C)cc3Oc3nc(N)c(C#N)c(N)c32)cc1 (centres undefined) ; TGI = 3.22 µM
